Provenance of the data: ChEMBL document CHEMBL1641484

# IC50 per record follows
experimental_details: Cytotoxicity against human U87 cells after 4 hrs by MTT assay
Assay type: functional, cell-based, U-87MG ATCC
details: U-87 MG

Consider the reported IC50 for these molecules:
INSERT INTO results (substance_smiles, value_observed) VALUES
  ('C[C@@H]1O[C@@H](O[C@H]2[C@H](O[C@H]3CC[C@]4(C)[C@H]5CC[C@]6(C)C(=CC[C@@]7(C)CCC(C)(C)C[C@H]76)[C@]5(C)CC[C@H]4C3(C)C)O[C@H](CO)[C@H](O)[C@@H]2O[C@@H]2OC[C@@H](O)[C@H](O)[C@H]2O)[C@H](O)[C@H](O)[C@H]1O', '> 40 µM'),
  ('CC(C)CCC[C@@H](C)[C@H]1CC[C@H]2[C@@H]3CC=C4C[C@@H](O[C@@H]5O[C@H](CO)[C@H](O)[C@H](O[C@@H]6OC[C@@H](O)[C@H](O)[C@H]6O)[C@H]5O[C@@H]5O[C@@H](C)[C@H](O)[C@@H](O)[C@H]5O)CC[C@]4(C)[C@H]3CC[C@]12C', '16.5 µM');

Let's switch to this molecule now.
Measured IC50 of "CC[C@H](CC[C@@H](C)[C@H]1CC[C@H]2[C@@H]3CC=C4C[C@@H](O[C@@H]5O[C@H](CO)[C@H](O)[C@H](O[C@@H]6OC[C@@H](O)[C@H](O)[C@H]6O)[C@H]5O[C@@H]5O[C@@H](C)[C@H](O)[C@@H](O)[C@H]5O)CC[C@]4(C)[C@H]3CC[C@]12C)C(C)C" : > 40 µM

* * *

Test system: KB
experimental_details: Cytotoxicity against human KB cells after 4 hrs by MTT assay
Format: functional, cell-based
# Lookup of reported IC50 keyed by entry
Form entry: value (µM) — number only.

These solved cases illustrate the format of a correct answer.
INSERT INTO measurements (compound, unit_of_measurement, value_observed) VALUES
  ('C[C@@H]1CC[C@@]2(OC1)O[C@H]1C[C@H]3[C@@H]4CC=C5C[C@@H](O[C@@H]6O[C@H](CO)[C@H](O)[C@H](O[C@@H]7OC[C@@H](O)[C@H](O)[C@H]7O)[C@H]6O[C@@H]6O[C@@H](C)[C@H](O)[C@@H](O)[C@H]6O)CC[C@]5(C)[C@H]4CC[C@]3(C)[C@H]1[C@@H]2C [INDIOSIDE E]', 'µM', 1.71),
  ('CC(C)CCC[C@@H](C)[C@H]1CC[C@H]2[C@@H]3CC=C4C[C@@H](O[C@@H]5O[C@H](CO)[C@H](O)[C@H](O[C@@H]6OC[C@@H](O)[C@H](O)[C@H]6O)[C@H]5O[C@@H]5O[C@@H](C)[C@H](O)[C@@H](O)[C@H]5O)CC[C@]4(C)[C@H]3CC[C@]12C', 'µM', 16.3);

Proceed to the following item.
For reference, reported IC50 for "C[C@@H]1CC[C@@]2(OC1)O[C@H]1C[C@H]3[C@@H]4CC[C@H]5C[C@@H](O[C@@H]6O[C@H](CO)[C@H](O)[C@H](O[C@@H]7OC[C@@H](O)[C@H](O)[C@H]7O)[C@H]6O[C@@H]6O[C@@H](C)[C@H](O)[C@@H](O)[C@H]6O)CC[C@]5(C)[C@H]4CC[C@]3(C)[C@H]1[C@@H]2C" stands at 1.32
